# Target entity: HIV-1 envelope glycoprotein gp120 of virus 7141 (HIV-1)
# Assay notes: cell-based or functional assay
Assay endpoint: neutralization IC50 (µg/mL)
Only the number, expressed in µg/mL, is required.

Consider the reported neutralization IC50 for these binders:
2.3.7-1 (antibody, human IgG1, kappa, V domains shown) VH: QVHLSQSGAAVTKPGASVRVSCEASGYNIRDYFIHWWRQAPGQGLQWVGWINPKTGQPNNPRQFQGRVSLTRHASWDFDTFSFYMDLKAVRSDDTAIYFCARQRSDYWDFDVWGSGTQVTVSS VL: DIQMTQSPSSLSARVGDRATITCQANGYLNWYQQRRGKAPKLLIYDGSKLERGVPARFSGSRWGQEYTLTISSLQPEDVATYFCQVYEFFGPGTRLDLKR: 5.08
2.3.15-1 (antibody, human IgG1, kappa, V domains shown) VH: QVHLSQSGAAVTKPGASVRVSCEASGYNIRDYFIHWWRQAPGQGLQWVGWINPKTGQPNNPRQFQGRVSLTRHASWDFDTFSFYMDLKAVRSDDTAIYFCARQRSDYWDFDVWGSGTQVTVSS VL: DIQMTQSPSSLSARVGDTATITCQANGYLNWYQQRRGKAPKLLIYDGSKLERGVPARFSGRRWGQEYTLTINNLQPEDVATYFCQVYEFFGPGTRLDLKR: 5.93
3.1.15-1 (antibody, human IgG1, kappa, V domains shown) VH: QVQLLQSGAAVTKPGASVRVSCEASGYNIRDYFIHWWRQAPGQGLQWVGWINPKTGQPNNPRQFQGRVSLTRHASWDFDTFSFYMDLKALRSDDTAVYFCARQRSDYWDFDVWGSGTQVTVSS VL: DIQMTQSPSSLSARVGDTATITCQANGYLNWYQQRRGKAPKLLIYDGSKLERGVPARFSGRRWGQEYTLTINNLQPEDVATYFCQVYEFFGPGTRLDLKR: 9.1
3.1.9-1 (antibody, human IgG1, kappa, V domains shown) VH: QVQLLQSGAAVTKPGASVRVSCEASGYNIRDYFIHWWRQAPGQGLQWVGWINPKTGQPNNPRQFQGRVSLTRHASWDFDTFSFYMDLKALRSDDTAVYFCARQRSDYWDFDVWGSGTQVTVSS VL: DIQMTQSPSSLSARVGDTATITCQANGYLNWYQQRRGKAPKLLIYDGSKLERGVPARFSGRRWGQEYNLTINNLQPEDVATYFCQVYEFFGPGTRLDLKR: 4.35
1.1.102-1 (antibody, human IgG1, kappa, V domains shown) VH: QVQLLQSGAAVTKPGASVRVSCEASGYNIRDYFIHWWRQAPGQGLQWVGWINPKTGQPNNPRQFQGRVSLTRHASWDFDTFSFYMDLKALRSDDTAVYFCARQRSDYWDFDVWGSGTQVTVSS VL: DIQMTQSPSSLSASVGDRATITCQANGYLNWYQQRRGKAPKLLIYDGSKLERGVPSRFSGSRWGQEYHLTISSLQPEDIATYFCQVYEFFGPGTRLDLKR: 22.7

Lab book: neutralization IC50 of 2.3.13-1 (antibody, human IgG1, kappa, V domains shown) VH: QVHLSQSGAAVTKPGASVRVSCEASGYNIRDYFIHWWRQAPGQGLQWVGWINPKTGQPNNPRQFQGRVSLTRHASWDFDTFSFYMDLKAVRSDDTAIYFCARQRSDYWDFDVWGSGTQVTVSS VL: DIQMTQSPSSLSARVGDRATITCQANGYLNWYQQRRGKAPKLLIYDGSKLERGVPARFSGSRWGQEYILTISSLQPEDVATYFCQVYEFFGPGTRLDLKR noted as 15.5

Origin of measurements: patent US20240034774A1
